procedure summary: Oxidative metabolic stability in human liver microsomes at 1 uM after 30 mins in presence of 1 mM NADPH
Format: ADME, Microsome
particulars: liver microsomes, read-out: Stability
Measured remaining at 0.5 h, 1 µM values are reported for all entries that follow.
The reply should consist of the numeric value with the unit placed after it.

>  <molecule>
O=S(=O)(c1ccc(Cl)cc1)N1c2ccccc2-c2n[nH]cc2C1C(F)(F)F (racemic)

>  <remaining at 0.5 h, 1 µM>
13%

$$$$

Task: May I ask what remaining at 0.5 h, 1 µM has been recorded for O=S(=O)(c1cccs1)N1c2cc(F)c(F)cc2-c2n[nH]cc2C1C1CC1 (racemic) ?
Result: 1%

Task: Could you do the same for N#Cc1ccc2c(c1)N(S(=O)(=O)c1ccc(C(F)(F)F)cc1)C(C1CC1)c1c[nH]nc1-2 (racemic) , please?
Result: 80%

Task: Could you do the same for O=S(=O)(c1ccc(OC(F)(F)F)cc1)N1c2ccc(F)cc2-c2n[nH]cc2C1C1CC1 (racemic) , please?
Result: 60%

Task: Could you do the same for O=S(=O)(c1ccc(C(F)(F)F)cc1)N1c2ncccc2-c2n[nH]cc2C1C1CC1 (racemic) , please?
Result: 59%

Task: Could you do the same for Nc1ccc(S(=O)(=O)N2c3cc(F)c(F)cc3-c3n[nH]cc3C2C2CC2)cc1 (racemic) , please?
Result: 53%

Task: Could you do the same for O=S(=O)(c1ccc(C(F)(F)F)cc1)N1c2c[n+]([O-])ccc2-c2n[nH]cc2C1C1CC1 (racemic) , please?
Result: 87%

Task: Could you do the same for O=S(=O)(c1ccc(C(F)(F)F)cc1)N1c2cc(I)ccc2-c2n[nH]cc2C1C1CC1 (single isomer, unassigned; enantiomer 3) , please?
Result: 80%

Task: Could you do the same for O=S(=O)(c1ccc(C(F)(F)F)cc1)N1c2cc(N3CCOCC3)ccc2-c2n[nH]cc2C1C1CC1 (racemic) , please?
Result: 29%

Task: Could you do the same for CC1c2c[nH]nc2-c2ccc(OCc3ccccc3)cc2N1S(=O)(=O)c1ccc(Cl)cc1 (racemic) , please?
Result: 0%

FYI, the data here is from ChEMBL document CHEMBL1155356.
